- protocol_description: Jurkat reporter gene cellular assay
- Format: cell-based
- setup_conditions: Homo sapiens; Jurkat/NF-κB-luc/PD1 + Raji-PD-L1 coculture, OKT3 1 μg/mL, 6 hrs, activation fold; read-out: Cell Activity EC50
- Experimental: The effect of compounds of the examples of the present invention and positive compounds on the interaction between PD-1 and PD-L1 expressed on cell surfaces, and the related influence on T cell functions, were determined by a Jurkat reporter gene cellular assay. […]
pEC50: −log10 of the molar value.
attribute_measured: pEC50

Consider the worked cases shown below.
compound	pEC50
COc1cc(/C(F)=C/c2cccc(-c3cccc(NC(=O)c4nc5c(n4C)CCN(CCC46CCC(C(=O)O)(CC4)C6)C5)c3Cl)c2Cl)ncc1CN1CC[C@@H](N(C)C)C1	6.46
Cc1c(/C=C(\F)c2cc(C3CC3)c(CN3CCCC[C@H]3C(=O)O)cn2)cccc1-c1cccc(NC(=O)c2nc3c(n2C)CCN(C(C)C)C3)c1C	6.60
COc1cc(/C(F)=C/c2cccc(-c3cccc(NC(=O)c4nc5c(n4C)CCN(CCC46CCC(C(=O)O)(CC4)C6)C5)c3Cl)c2Cl)ncc1CN1CC[C@@](C)(C(=O)O)C1	7.26

a = COc1cc(/C(F)=C/c2cccc(-c3cccc(NC(=O)c4nc5c(n4C)CCN(CCC46CCC(C(=O)O)(CC4)C6)C5)c3Cl)c2Cl)ncc1CN1CC[C@@H](C(=O)O)C1
b = COc1cc(/C(F)=C/c2cccc(-c3cccc(NC(=O)c4nc5c(n4C)CCN(CCC46CCC(C(=O)O)(CC4)C6)C5)c3Cl)c2Cl)ncc1CN1CC[C@H](C(=O)O)C1
c = COc1cc(/C(F)=C/c2cccc(-c3cccc(NC(=O)c4nc5c(n4C)CCN(CCC46CCC(C(=O)O)(CC4)C6)C5)c3Cl)c2Cl)ncc1CNCC(F)F
In: Give the ascending ranking of the items by reported pEC50. Hello, could you send the labels back in the order asked? Thank you.
Out: c, b, a

###

- protocol_description: Pharmacokinetic assay in mice
- Assay type: in vivo
- setup_conditions: male, mouse; ICR mice, PO 10 mg/kg, plasma, original compound detected
- Method: III. Pharmacokinetic Assay in Mice The purpose of this study was to study the pharmacokinetic behaviors of some compounds of the present invention, and administration routes were: per oral administration (PO) to ICR mice at a dose of 10 mg/kg. The compounds used in this test came from the compounds of the specific examples of the present invention. […] 4) 100 μL of supernate was taken and added to 100 μL of water, and 5 μL of the sample was taken and analyzed by LC/MS/MS. […]
attribute_measured: MRT (h)

Solved cases (2 shown):
compound	unit_of_measure	MRT
COc1cc(/C(F)=C/c2cccc(-c3cccc(NC(=O)c4nc5c(n4C)CCN(CCC46CCC(C(=O)O)(CC4)C6)C5)c3Cl)c2Cl)ncc1CN1CC[C@@](C)(C(=O)O)C1	h	2.9
COc1cc(/C(F)=C/c2cccc(-c3cccc(NC(=O)c4nc5c(n4C)CCN(CCC46CCC(C(=O)O)(CC4)C6)C5)c3Cl)c2Cl)ncc1CN1CCC(C)(O)C1 (centres unmarked)	h	7.4

P = Cc1c(/C=C(\F)c2nc3c(n2C)CCN(C(C)C)C3)cccc1-c1cccc(NC(=O)c2nc3c(n2C)CCN(CCC24CCC(C(=O)O)(CC2)C4)C3)c1C
Q = COc1cc(/C(F)=C/c2cccc(-c3cccc(NC(=O)c4nc5c(n4C)CCN(CCC46CCC(C(=O)O)(CC4)C6)C5)c3Cl)c2Cl)ncc1CN1CC[C@@H](C(=O)O)C1
In: Returns: the label, P or Q , whose recorded MRT is the lower number. // output: label of the selected item
Out: Q
(Q: 2 h, P: 8.3 h)

###

- protocol_description: Pharmacokinetic assay in mice
- Format: in vivo
- setup_conditions: male, mouse; ICR mice, PO 10 mg/kg, plasma, original compound detected
attribute_measured: Cmax (ng/mL)

Solved entries:
compound	reported_result
COc1cc(/C(F)=C/c2cccc(-c3cccc(NC(=O)c4nc5c(n4C)CCN(CCC46CCC(C(=O)O)(CC4)C6)C5)c3Cl)c2Cl)ncc1CN1CCC(C)(O)C1 (centres unmarked)	1010
Cc1c(/C=C(\F)c2nc3c(n2C)CCN(C(C)C)C3)cccc1-c1cccc(NC(=O)c2nc3c(n2C)CCN(CCC24CCC(C(=O)O)(CC2)C4)C3)c1C	323
COc1cc(/C(F)=C/c2cccc(-c3cccc(NC(=O)c4nc5c(n4C)CCN(CCC46CCC(C(=O)O)(CC4)C6)C5)c3Cl)c2Cl)ncc1CN1CCCC1	173

a = COc1cc(/C(F)=C/c2cccc(-c3cccc(NC(=O)c4nc5c(n4C)CCN(CCC46CCC(C(=O)O)(CC4)C6)C5)c3Cl)c2Cl)ncc1CN1CC[C@@](C)(C(=O)O)C1
b = COc1cc(/C(F)=C/c2cccc(-c3cccc(NC(=O)c4nc5c(n4C)CCN(CCC46CCC(C(=O)O)(CC4)C6)C5)c3Cl)c2Cl)ncc1CN1CC[C@@H](C(=O)O)C1
In: When their Cmax values are compared, which is larger, a or b ? Please reply using the label of the selected record.
Out: a

###

- protocol_description: Jurkat reporter gene cellular assay
- Assay type: cell-based
- setup_conditions: Homo sapiens; Jurkat/NF-κB-luc/PD1 + Raji-PD-L1 coculture, OKT3 1 μg/mL, 6 hrs, activation fold; read-out: Cell Activity EC50
pEC50: −log10 of the molar value.
attribute_measured: pEC50

# annotated cases, reported pEC50 shown
compound	reported_result
COc1cc(/C(F)=C/c2cccc(-c3cccc(NC(=O)c4nc5c(n4C)CCN(CCC46CCC(C(=O)O)(CC4)C6)C5)c3Cl)c2Cl)ncc1CN1CC(O)C1	6.93
COc1cc(/C(F)=C/c2cccc(-c3cccc(NC(=O)c4nc5c(n4C)CCN(CCC46CCC(C(=O)O)(CC4)C6)C5)c3Cl)c2Cl)ncc1CN1CCC[C@H]1C(C)(C)O	6.94
COc1cc(/C(F)=C/c2cccc(-c3cccc(NC(=O)c4nc5c(n4C)CCN(CCC46CCC(C(=O)O)(CC4)C6)C5)c3Cl)c2Cl)ncc1CN1CCCC1	7.36

P = C[C@@H](O)CN1CCc2c(nc(/C(F)=C/c3cccc(-c4cccc(NC(=O)c5nc6c(n5C)CCN(CCC57CCC(C(=O)O)(CC5)C7)C6)c4Cl)c3Cl)n2C)C1
Q = COc1cc(/C(F)=C/c2cccc(-c3cccc(NC(=O)c4nc5c(n4C)CCN(CCC46CCC(C(=O)O)(CC4)C6)C5)c3Cl)c2Cl)ncc1CN(C)C(C)C
R = Cc1c(/C=C(\F)c2nc3c(n2C)CCN(C(C)C)C3)cccc1-c1cccc(NC(=O)c2nc3c(n2C)CCN(CCC24CCC(C(=O)O)(CC2)C4)C3)c1Cl
S = COc1cc(/C(F)=C/c2cccc(-c3cccc(NC(=O)c4nc5c(n4C)CCN(CCC46CCC(C(=O)O)(CC4)C6)C5)c3Cl)c2Cl)ncc1CN1CCC(O)(C(F)(F)F)C1 (stereo not drawn)
In: Arrange the 4 compounds by rising pEC50, starting with the smallest. // rank by listing labels in the order requested
Out: S, R, Q, P
(S: 6.28, R: 6.54, Q: 6.80, P: 7.21)

1 = COc1cc(/C(F)=C/c2cccc(-c3cccc(NC(=O)c4nc5c(n4C)CCN(CCC46CCC(C(=O)O)(CC4)C6)C5)c3Cl)c2Cl)ncc1CN1CCCCC1
2 = COc1cc(/C(F)=C/c2cccc(-c3cccc(NC(=O)c4nc5c(n4C)CCN(CCC46CCC(C(=O)O)(CC4)C6)C5)c3Cl)c2Cl)ncc1CN1CC[C@@](C)(O)C1
3 = COc1cc(/C(F)=C/c2cccc(-c3cccc(NC(=O)c4nc5c(n4C)CCN(CCC46CCC(C(=O)O)(CC4)C6)C5)c3Cl)c2Cl)ncc1CNC1CCC1
In: Reorder the items by pEC50, least to greatest. Returns: the labels arranged in the requested order.
Out: 1, 3, 2

P = COc1cc(/C(F)=C/c2cccc(-c3cccc(NC(=O)c4nc5c(n4C)CCN(CCC46CCC(C(=O)O)(CC4)C6)C5)c3Cl)c2Cl)ncc1CN1CCC(C)(O)C1 (stereo not drawn)
Q = COc1cc(/C(F)=C/c2cccc(-c3cccc(NC(=O)c4nc5c(n4C)CCN(CCC46CCC(C(=O)O)(CC4)C6)C5)c3Cl)c2Cl)ncc1CNC1CC1
R = COc1cc(/C(F)=C/c2cccc(-c3cccc(NC(=O)c4nc5c(n4C)CCN(CCC46CCC(C(=O)O)(CC4)C6)C5)c3Cl)c2Cl)ncc1CNC1CCCC1
In: Given 3 compounds, produce a descending ranking by pEC50. // ordering of labels required in reply
Out: P, R, Q

1 = COc1cc(/C(F)=C/c2cccc(-c3cccc(NC(=O)c4nc5c(n4C)CCN(CCC46CCC(C(=O)O)(CC4)C6)C5)c3Cl)c2Cl)ncc1CN1CC2CCC1C2 (stereo not drawn)
2 = COc1cc(/C(F)=C/c2cccc(-c3cccc(NC(=O)c4nc5c(n4C)CCN(CCC46CCC(C(=O)O)(CC4)C6)C5)c3Cl)c2Cl)ncc1CN1CCC(C)(C)C1
In: Parameter metric = pEC50. Return the lower-valued option from 1 and 2 . Select an item and report its label.
Out: 2
